The reader will find reported Kd values listed item by item below.
- target: His-HSP90 N-term domain
- measurement-protocol: Determination of KD Via Biacore
- Format: binding
- experimental-conditions: Biacore T100
Field format: number, assumed nM, no unit text.

mol=CN1CCC(NC(=O)c2cc(-c3c(O)cc(O)cc3Oc3ccc([N+](=O)[O-])cc3)no2)CC1 reported_metric=Kd unit_tag=nM assay_value=0.24
mol=CN(C)c1ccc(Oc2cc(O)cc(O)c2-c2cc(C(=O)NC3CCN(C4CCC(F)(F)CC4)CC3)no2)cc1 reported_metric=Kd unit_tag=nM assay_value=0.057
mol=CN(C)c1ccc(Oc2cc(O)cc(O)c2-c2cc(C(=O)NC3CCN(C4CCC5(CC4)OCCCCO5)CC3)no2)cc1 reported_metric=Kd unit_tag=nM assay_value=0.423
mol=CN(C)c1ccc(Oc2cc(O)cc(O)c2-c2cc(C(=O)NC3CCN(CC4CCCCC4)CC3)no2)cc1 reported_metric=Kd unit_tag=nM assay_value=0.188
mol=CN(C)c1ccc(Oc2cc(O)cc(O)c2-c2cc(C(=O)NC3CCN(C4CCC5(CC4)OCC(C)(C)CO5)CC3)no2)cc1 reported_metric=Kd unit_tag=nM assay_value=0.08

The compound CN(C)c1ccc(Oc2cc(O)cc(O)c2-c2cc(C(=O)NC3CCN(C4CCC5(CC4)OCCCO5)CC3)no2)cc1 showed Kd equal to 0.079

The compound CN1CCC(NC(=O)c2cc(-c3c(O)cc(O)cc3Oc3ccc(N(C)C)cc3)no2)CC1 showed Kd equal to 0.066

The compound O=C(NC1CCN(C2CCC(F)(F)CC2)CC1)c1cc(-c2c(O)cc(O)cc2Oc2ccc([N+](=O)[O-])cc2)on1 showed Kd equal to 0.8

The compound CN(C)c1ccc(Oc2cc(O)cc(O)c2-c2cc(C(=O)NC3CCN(C4CCC5(CC4)OCCO5)CC3)on2)cc1 showed Kd equal to 0.043
